Origin of the recorded values: patent US20130302399A1

target_entity: T1, human Proprotein Convertase Subtilisin-like/Kexin type 9 (human, UniProt Q8NBP7 31-692, limits assumed)
T1 construct: Biotinylated in the ELISAs; unlabelled analyte in BLI and SPR; also called human PCSK9; PCSK9
experiment_notes: BLI (Octet QK), biotinylated antibody on streptavidin sensors, human PCSK9 in solution, 1:1 fit
property_name: pKd
Answer as the number alone; pKd is minus log10 of concentration in mol/L.

Ab14 (antibody, human IgG1, kappa, N297A, V domains shown, also called antibody Ab14) VH: QEQLEESGGDLVKPEGSLTLTCTGSGFSFSSIAYMCWIRQAPGKGLEWIGCIGSGSGNTYYANWAKGRFTISKSSSTTVTLQMTSLTAADTATYFCASDTNNGWLGQFNLWGQGTLVTVSS VL: DIVMTQTPASVSAAVGGTVTINCQASQSISSYLAWYQQKPGQPPKLLIYRASTLASGVPSRFKGSGSGTQFTLTISDLECADAATYYCQGYYSVTTNTYGNTFGGGTEVVVKR
8.43

Asked: Please look up its pKd: Ab10 (antibody, human IgG1, kappa, N297A, V domains shown, also called antibody Ab10) VH: QEQLEESGGDLVKPEGSLTLTCTASGFSFSSSYWICWVRQAPGKGLEWIACIRAGGGNYYANWAKGRFTISRTSSTTVTLQMTSLTAADTATYFCASDINDGWLGQFNLWGPGTLVTVSS VL: NIVMTQTPASVEAAVGGTVTIKCQASQSISNYLAWYQQKPGQPPKLLIYRTSTLASGVPSRFKGSGSGTQFTLTISDLECADAATYYCQSYYSVTTVAYGNTFGGGTEVVVKR
Given back: 9.17

Asked: What does the data say about its pKd? Entry: Ab13 (antibody, human IgG1, kappa, N297A, V domains shown, also called antibody Ab13) VH: QSVEESGGRLVTPGTPLTLTCTVSGIDLSTYGVGWVRQAPGKGLEYIGIISSSGSTYYASWAKGRFTISKTSSTTVDLKMTSLTTEDTATYFCARDWSSTTGYYGYFNMWGPGTLVTVSS VL: AFELTQTPSPVSAAVGGTVTIKCQASQSISTALAWYQQKPGQPPKLLIYGASNLESGVPSRFSGSGSGTQFTLTISDLECADAAIYYCQSSYGSSTLAFGGGTEVVVKR
Given back: 8.65

Asked: Param item = Ab15 (antibody, human IgG1, kappa, N297A, V domains shown, also called antibody Ab15) VH: QEQLEESGGDLVKPEGSLTLTCTASGFSFSSSYWICWVRQAPGKGLEWIACIDAGNSGSTYYASWAKGRFTISKASSTTVTLQMTSLTAADTATYFCASDLNDGWLGQFNLWGPGTLVTVSS VL: NIVMTQTPSPVSGAVGGTVTIKCQASQSISDYLAWYQQKPGQPPKLLIYRASTLASGVPSRFRGSGSGTEYTLTITDLECADAATYYCQSYYSVTTNTYGNTFGGGTEVVVKR ; retrieve measured pKd.
Given back: 9.08

Asked: What pKd value was documented for this binder, Ab17 (antibody, human IgG1, kappa, N297A, V domains shown, also called antibody Ab17) VH: QEQLEESGGDLVKPEGSLTLTCTASGFSFSSSYWICWVRQAPGKGLEWIGCIRPGSADYYASWAKGRFTISRASSSTVTLQMTSLTAADTATYFCASDINDGWLGQFNLWGPGTLVTVSS VL: DVVMTQTPASVEAAVGGTVTIKCQASLSIADYLAWYLQKPGQPPKLLIYRASTLASGVPSRFKGSGSGTEYTLTISDLECADAATYYCQSYYSVTTNTYGNTFGGGTEVVVKR ?
Given back: 9.22
